Values were extracted from patent US20180179256A1.

Tested on: HLA-DR
Format: cell-based, human
Reported property: Peptide-specific T cell response on blocking HLA-DR (in words)

The examples below pair each entry with its known result.
- PRYVKQSTLKLATG [IAV-2, reference compound]: only partially inhibited
- PKYVKSNRLVLATG [IAV-4, reference compound]: only partially inhibited
- KGILGFVFTLTVPSERGLQ [H7N9-3]: only partially inhibited
- DKLYERVKRQLRENAEED [H7N9-8]: only partially inhibited
- RIDFHWLMLNPNDTVTFS [H7N9-1]: only partially inhibited

Note to self: Peptide-specific T cell response on blocking HLA-DR (in words) recorded for AANIIGILHLILWILDRL [H7N9-10] was only partially inhibited

Note to self: Peptide-specific T cell response on blocking HLA-DR (in words) recorded for PRYVKQNTLKLATG [IAV-3, reference compound] was only partially inhibited
